- System: human lung adenocarcinoma epithelial cell line A549
- assay-method-text: MTT assay, inhibition of tumor cell growth (A549)
- Type: cell-based
- condition-label: 72 hours incubation, read-out: IC50 on the tumor cells A549
pIC50: −log10 of the molar value.
recorded-metric: pIC50

Guide cases for pIC50, answers given:
{"compound": "CC(C)N1C(=O)C(=C2C(=O)Oc3ccc(F)cc32)c2cccnc21 [Compound 150]", "assay-system": "human lung adenocarcinoma epithelial cell line A549", "endpoint-value": 5.10}
{"compound": "CCN1C(=O)C(=C2Oc3ccccc3C2=O)c2cc(Cl)ccc21 [Compound 5]", "assay-system": "human lung adenocarcinoma epithelial cell line A549", "endpoint-value": 4.94}
{"compound": "O=C1C(=C2Oc3ccccc3C2=NO)c2cc(F)ccc2N1Cc1ccccc1 [Compound 39]", "assay-system": "human lung adenocarcinoma epithelial cell line A549", "endpoint-value": 4.48}
{"compound": "O=C1Oc2ccccc2C1=C1C(=O)N(C2OC(CO)C(O)C(O)C2O)c2ccccc21 (stereo not shown) [Compound 112]", "assay-system": "human lung adenocarcinoma epithelial cell line A549", "endpoint-value": 4.05}
{"compound": "O=C1C(=C2Oc3ccccc3C2=NO)c2ccccc2N1C1OC(CO)C(O)C1O (stereo not shown) [Compound 33]", "assay-system": "human lung adenocarcinoma epithelial cell line A549", "endpoint-value": 4.83}

1. CC(C)N1C(=O)C(=C2Oc3ccc(Cl)cc3C2=O)c2ccc(Cl)cc21 [Compound 24]
2. CCN1C(=O)C(=C2Oc3ccccc3C2=O)c2cc(C)ccc21 [Compound 7]
Prompt: Rank 1 against 2 by their pIC50 values and give the higher one. Indicate which entry you chose by stating its label.
Response: 1

A. CCN1C(=O)C(=C2Oc3ccccc3C2=NO)c2cc(C)ccc21 [Compound 31]
B. CCN1C(=O)C(=C2Oc3ccc(Cl)cc3C2=O)c2ccc(Cl)cc21 [Compound 22]
C. O=C1C(=C2C(=O)N(Cc3ccccc3)c3ccc(F)cc32)Oc2ccccc21 [Compound 15]
D. CON=C1C(=C2C(=O)N(C(C)C)c3ccc(C)cc32)Oc2ccccc21 [Compound 55]
E. O=C1Oc2ccccc2C1=C1C(=O)N(Cc2ccccc2)c2cc(Cl)ccc21 [Compound 120]
Prompt: Ranking field: pIC50; order: falling. Please list the labels according to the requested order.
Response: A, B, C, D, E

a. CC(C)N1C(=O)C(=C2Oc3ccc(Cl)cc3C2=O)c2cc(Cl)ccc21 [Compound 23]
b. CCN1C(=O)C(=C2Oc3ccccc3C2=O)c2cc(F)ccc21 [Compound 18]
c. O=C1Oc2ccccc2C1=C1C(=O)N(Cc2ccccc2)c2ncccc21 [Compound 152]
d. O=C1Nc2ccncc2C1=C1C(=O)Oc2ccccc21 [Compound 121]
Prompt: Put the compounds in ascending order of pIC50. Provide the ranking by listing each label in its place in the requested order.
Response: c, d, b, a

P. CCN1C(=O)C(=C2Oc3ccccc3C2=NO)c2ccccc21 [Compound 27]
Q. CCN1C(=O)C(=C2Oc3ccccc3C2=NO)c2cc(Cl)ccc21 [Compound 29]
R. Cc1nccc2c1C(=C1Oc3ccccc3C1=O)C(=O)N2C(C)C [Compound 68]
S. CON=C1C(=C2C(=O)N(C(C)C)c3cc(Cl)ccc32)Oc2ccc(Cl)cc21 [Compound 60]
Prompt: Rank by pIC50 (largest to smallest). Record the ranking as a list of labels in the requested order.
Response: Q, P, R, S
